System: HOP-18
Assay: NCI tumour cell line growth inhibition, 48 h
Active and inactive are the calls of the source. Cut-off read from the data, not from the text of the source: active = GI50 up to about 1.1 µM and inactive = higher.
MEASUREMENT TYPE: GI50

Completed entries (count: 4):
CC(=O)N1CCc2[nH]c3ccccc3c2CC1 : 86.9 µM (inactive)
CN(C)CCCN1N=Nc2cccc3cccc1c23 : 99.3 µM (inactive)
O=c1c2cc3c(cc2c2cccc4c2n1CCC4)OCO3 : 49.5 µM (inactive)
COc1c(Br)cc(CC(N)=O)c(O)c1Br : > 100 µM (inactive)

q: Report GI50 for O=C1C=C(Nc2ccccc2C(=O)c2ccccc2)c2ccccc2C1=O please.
a: > 100 µM (inactive)

q: Report GI50 for CCCCCCCCCCCCCC(=O)NCC(OCC)OCC please.
a: > 100 µM (inactive)

====

System: RPMI-8226
Assay: NCI tumour cell line growth inhibition, 48 h
The source made the active and inactive calls. Cut-off read from the data, not from the text of the source: active = GI50 up to about 1.1 µM and inactive = higher.
Return exactly one item of Yes = active, No = inactive

Worked examples, 5 compounds total:
CCOC(=O)C(CCCNC(=O)OC(C)(C)C)N(Cc1ccc(OC)cc1OC)C(=O)CC(=O)CP(=O)(OCC)OCC (configuration not stated) : No
COC(=O)c1cn(CC(O)CCl)nn1 (configuration not stated) : No
Oc1cc(F)cc2cccnc12 : Yes
Cc1csc2c(=O)n(COCc3ccccc3)c(=O)[nH]c12 : No
CCN(CC)CCC1CCCCN1CC(=O)N1c2cc(Cl)ccc2NC(=O)CC1C (configuration not stated) : No

q: Just curious, what result did Cc1nc2ccccc2n1C(=O)c1c(F)c(F)c(F)c(F)c1F get here?
a: No

q: Just curious, what result did CCCCCC/C=C\CCCCCCCCCc1cccc(OC)c1O get here?
a: No

====

Test system: UACC-62
Assay: NCI tumour cell line growth inhibition, 48 h
Active and inactive are the calls of the source. No stated cut-off is given here; in the data, active = GI50 up to about 1.1 µM and inactive = higher.
Return exactly one item of Yes for active, No for inactive

Worked examples, 4 compounds total:
CO/N=C/c1c(-c2ccc(Cl)cc2)c(/C=N/OC)n2c1sc1ccccc12 : No
CC1(C)CC(=O)C2=C(C1)OC1=C(CC(C)(C)CC1=O)C2c1ccccc1[N+](=O)[O-] (centres undefined) : No
Cc1[nH]c2c(C)cccc2c1C1Cc2ccccc2N1 (centres undefined) : No
COc1cc2cc(C(=O)N3C[C@H](CCl)c4c3cc(O)c3ccccc43)[nH]c2c(OC)c1OC : Yes

q: Just curious, what result did COc1cccc(Nc2nc(NNC(=O)Cc3ccccc3)nc(NNC(=O)c3ccncc3)n2)c1 get here?
a: No

q: Just curious, what result did CC1=C(C(=O)NCCCN(CCO)CCO)CC(C(=O)NCCCN(CCO)CCO)=C(C)N1 get here?
a: No

q: Just curious, what result did O=C(Nc1ccc(Cl)cc1)NS(=O)(=O)c1coc2ccccc2c1=O get here?
a: No

q: Just curious, what result did NC(=S)N1N=C(c2ccccc2O)CC1c1ccccc1 (centres undefined) get here?
a: No

q: Just curious, what result did COc1ccc(N2C(=O)C3c4[nH]c5ccc(C)cc5c4C4CCC(c5ccccc5)CC4C3C2=O)cc1 (centres undefined) get here?
a: No

q: Just curious, what result did CCN(CC)CCOCCOCC1(c2ccc(Cl)c(Cl)c2)CCCCC1 get here?
a: No

q: Just curious, what result did C[N+](C)(CCNc1ccc(NCC[N+](C)(C)Cc2ccc([N+](=O)[O-])cc2)c2c1C(=O)c1c(O)ccc(O)c1C2=O)Cc1ccc([N+](=O)[O-])cc1 get here?
a: No

q: Just curious, what result did Cc1noc(NS(=O)(=O)c2ccc(NC(=O)c3ccc4[nH]c5ccccc5c(=O)c4c3)cc2)c1C get here?
a: No

q: Just curious, what result did CCCNC(=S)N/C=C1/C(=O)Oc2ccccc2C1=O get here?
a: No

q: Just curious, what result did O=C1C=C/C(=N\N=C(c2ccccc2)c2ccccc2)O1 get here?
a: No

q: Just curious, what result did CCOC(=O)c1cc2cc(N(C(C)=O)C(C)=O)ccc2s1 get here?
a: No

q: Just curious, what result did COc1cc2c(cc1Cl)[n+]([O-])c(C#N)c(N1CCN(c3ccc([N+](=O)[O-])cc3)CC1)[n+]2[O-] get here?
a: No

q: Just curious, what result did CCOC(=O)C1CCCN1C(=O)c1ccccc1Cl (centres undefined) get here?
a: No

q: Just curious, what result did ClCCCC1COc2ccccc2O1 (centres undefined) get here?
a: No

q: Just curious, what result did COc1ccc(/C(C#N)=C/c2ccc(OC)c(OC)c2)cc1 get here?
a: No

q: Just curious, what result did CCCCCCOc1ccc(NC2=C(Cl)C(=O)c3ncccc3C2=O)cc1 get here?
a: No

q: Just curious, what result did Cc1ccc(S(=O)(=O)c2[nH]cc(/C(=C\C3CCCCC3)[N+](=O)[O-])c2C2CCCCC2)cc1 get here?
a: Yes

q: Just curious, what result did COC(=O)C(Cc1c(C2Nc3ccccc3C2CC(NC(=O)CNC(C)=O)C(=O)OC)[nH]c2ccccc12)NC(=O)CNC(C)=O (centres undefined) get here?
a: No

q: Just curious, what result did O=S(O)CCCSSCCCCSSCCCS(=O)O get here?
a: No

q: Just curious, what result did COc1cccc(-n2c(N)c(-c3nc4cc(C(F)(F)F)ccc4s3)c3ccc([N+](=O)[O-])cc3c2=O)c1 get here?
a: No
